// values below are reported EC50
Test system: HEL
experiment.description: Concentration required to inhibit TK-VZV (07-1) induced cytopathogenicity in HEL cells by 50%
Type: functional
study.conditions: Homo sapiens; read-out: MIC

* OC[C@H]1OC(n2cnc3c(O)n4ccnc4nc32)[C@H](O)[C@@H]1O (stereo partly specified) | > 400 µg/mL

Notebook: Cc1cn2c(O)c3ncn(C4O[C@H](CO)[C@@H](O)[C@H]4O)c3nc2n1 (stereo partly specified) , EC50 read as > 200 µg/mL

Notebook: Cc1cn2c(O)c3ncn(COC(CO)CO)c3nc2n1 , EC50 read as 15 µg/mL

Notebook: OCCOCn1cnc2c(O)n3ccnc3nc21 , EC50 read as > 400 µg/mL

Notebook: Cc1cn2c(O)c3ncn(COCCO)c3nc2n1 , EC50 read as 400 µg/mL

Notebook: CCOC(Cn1c(N)nc2c(ncn2C2O[C@H](CO)[C@@H](O)[C@H]2O)c1=O)OCC (stereo partly specified) , EC50 read as > 200 µg/mL

----------
Tested on: HEL
experiment.description: Concentration required to inhibit TK-VZV (07-1) induced cytopathogenicity in HEL cells by 50%
Assay type: functional
study.conditions: Homo sapiens; read-out: MIC
// values below are reported EC50

- OCC(CO)OCn1cnc2c(O)n3ccnc3nc21: 400 µg/mL
- CCOC(Cn1c(N)nc2c(ncn2COC(CO)CO)c1=O)OCC: > 400 µg/mL

// below: EC50 requested for another molecule
HEL data for CCOC(Cn1c(N)nc2c(ncn2COCCO)c1=O)OCC ; its EC50: > 400 µg/mL

----------
Tested on: ESM
experiment.description: Concentration required to inhibit HSV-2(lyons) induced cytopathogenicity in ESM cells by 50%
Type: functional
study.conditions: Homo sapiens; read-out: MIC
observation.type: EC50 (50% inhibition of virus cytopathogenicity)

Solved entries:
* CCOC(Cn1c(N)nc2c(ncn2COCCO)c1=O)OCC | 20 µg/mL
* CCOC(Cn1c(N)nc2c(ncn2C2O[C@H](CO)[C@@H](O)[C@H]2O)c1=O)OCC (some centres undefined) | 100 µg/mL
* Cc1cn2c(O)c3ncn(COCCO)c3nc2n1 | 0.4 µg/mL
* OC[C@H]1OC(n2cnc3c(O)n4ccnc4nc32)[C@H](O)[C@@H]1O (some centres undefined) | > 400 µg/mL
* CCOC(Cn1c(N)nc2c(ncn2COC(CO)CO)c1=O)OCC | 20 µg/mL

// below: EC50 (50% inhibition of virus cytopathogenicity) requested for another compound
Notebook: Cc1cn2c(O)c3ncn(COC(CO)CO)c3nc2n1 , EC50 (50% inhibition of virus cytopathogenicity) read as 0.07 µg/mL

----------
Test system: HEL
experiment.description: Concentration required to inhibit CMV (Davis) induced cytopathogenicity in HEL cells by 50%
Assay type: functional
study.conditions: Homo sapiens
observation.type: MIC (µg/mL)
Give a bare numeral; the unit µg/mL is implied.

* Nc1nc2c(ncn2COC(CO)CO)c(=O)[nH]1 | 1
* OC[C@H]1OC(n2cnc3c(O)n4ccnc4nc32)[C@H](O)[C@@H]1O (stereo partly specified) | 400
* OCC(CO)OCn1cnc2c(O)n3ccnc3nc21 | 200
* Nc1nc2c(ncn2COCCO)c(=O)[nH]1 | 15

// below: MIC requested for another molecule
Notebook: Cc1cn2c(O)c3ncn(COC(CO)CO)c3nc2n1 , MIC read as 5

----------
// values below are reported EC50
Tested on: HEL
experiment.description: Concentration required to inhibit CMV (AD-169) induced cytopathogenicity in HEL cells by 50%
Type: functional
study.conditions: Homo sapiens; read-out: MIC
Give a bare numeral; the unit µg/mL is implied.

Solved entries:
- OCC(CO)OCn1cnc2c(O)n3ccnc3nc21: 150
- Cc1cn2c(O)c3ncn(COC(CO)CO)c3nc2n1: 4
- OC[C@H]1OC(n2cnc3c(O)n4ccnc4nc32)[C@H](O)[C@@H]1O (some centres undefined): 400

// below: EC50 requested for another molecule
Notebook: Cc1cn2c(O)c3ncn(COCCO)c3nc2n1 , EC50 read as 200

----------
// values below are reported 50% inhibitory concentration against virus-induced cytopathogenicity (EC50)
System: ESM
experiment.description: Concentration required to inhibit HSV-1 (KOS) induced cytopathogenicity in ESM cells by 50%
Format: functional
study.conditions: Homo sapiens; read-out: MIC

* Cc1cn2c(O)c3ncn(COCCO)c3nc2n1 | 0.7 µg/mL
* CCOC(Cn1c(N)nc2c(ncn2COC(CO)CO)c1=O)OCC | 70 µg/mL
* OC[C@H]1OC(n2cnc3c(O)n4ccnc4nc32)[C@H](O)[C@@H]1O (some centres undefined) | > 400 µg/mL
* Cc1cn2c(O)c3ncn(COC(CO)CO)c3nc2n1 | 0.07 µg/mL
* Cc1cn2c(O)c3ncn(C4O[C@H](CO)[C@@H](O)[C@H]4O)c3nc2n1 (some centres undefined) | > 400 µg/mL
* OCC(CO)OCn1cnc2c(O)n3ccnc3nc21 | 0.7 µg/mL
* CCOC(Cn1c(N)nc2c(ncn2C2O[C@H](CO)[C@@H](O)[C@H]2O)c1=O)OCC (some centres undefined) | > 400 µg/mL
* OCCOCn1cnc2c(O)n3ccnc3nc21 | 20 µg/mL

// below: 50% inhibitory concentration against virus-induced cytopathogenicity (EC50) requested for another molecule
Notebook: CCOC(Cn1c(N)nc2c(ncn2COCCO)c1=O)OCC , 50% inhibitory concentration against virus-induced cytopathogenicity (EC50) read as > 400 µg/mL

----------
Test system: ESM
experiment.description: Concentration required to inhibit TK-HSV-1 ([…]) induced cytopathogenicity in ESM cells by 50%
Format: functional
study.conditions: Homo sapiens
observation.type: MIC

* Nc1nc2c(ncn2COC(CO)CO)c(=O)[nH]1 | 1 µg/mL
* Cc1cn2c(O)c3ncn(COC(CO)CO)c3nc2n1 | 20 µg/mL

Notebook: CCOC(Cn1c(N)nc2c(ncn2COCCO)c1=O)OCC , MIC read as > 400 µg/mL

Notebook: OCCOCn1cnc2c(O)n3ccnc3nc21 , MIC read as > 400 µg/mL

Notebook: Cc1cn2c(O)c3ncn(COCCO)c3nc2n1 , MIC read as > 400 µg/mL

Notebook: CCOC(Cn1c(N)nc2c(ncn2COC(CO)CO)c1=O)OCC , MIC read as > 400 µg/mL

----------
System: ESM
experiment.description: Concentration required to inhibit TK-HSV-1 ([…]) induced cytopathogenicity in ESM cells by 50%
Format: functional
study.conditions: Homo sapiens
observation.type: MIC

Solved entries:
• OC[C@H]1OC(n2cnc3c(O)n4ccnc4nc32)[C@H](O)[C@@H]1O (stereo partly drawn) = > 400 µg/mL
• Cc1cn2c(O)c3ncn(C4O[C@H](CO)[C@@H](O)[C@H]4O)c3nc2n1 (stereo partly drawn) = > 400 µg/mL

Notebook: CCOC(Cn1c(N)nc2c(ncn2C2O[C@H](CO)[C@@H](O)[C@H]2O)c1=O)OCC (stereo partly drawn) , MIC read as > 400 µg/mL

----------
// values below are reported EC50 (50% inhibition of virus cytopathogenicity)
Test system: ESM
experiment.description: Concentration required to inhibit HSV-2(lyons) induced cytopathogenicity in ESM cells by 50%
Format: functional
study.conditions: Homo sapiens; read-out: MIC
Give a bare numeral; the unit mg/L is implied.

* OCC(CO)OCn1cnc2c(O)n3ccnc3nc21 | 0.7

// below: EC50 (50% inhibition of virus cytopathogenicity) requested for another molecule
Notebook: OCCOCn1cnc2c(O)n3ccnc3nc21 , EC50 (50% inhibition of virus cytopathogenicity) read as 10

----------
// values below are reported MIC
Tested on: HEL
experiment.description: Concentration required to inhibit CMV (Davis) induced cytopathogenicity in HEL cells by 50%
Type: functional
study.conditions: Homo sapiens

Solved entries:
* CCOC(Cn1c(N)nc2c(ncn2COCCO)c1=O)OCC | > 400 µg/mL
* CCOC(Cn1c(N)nc2c(ncn2C2O[C@H](CO)[C@@H](O)[C@H]2O)c1=O)OCC (stereo partly specified) | > 400 µg/mL
* OCCOCn1cnc2c(O)n3ccnc3nc21 | > 400 µg/mL
* Cc1cn2c(O)c3ncn(C4O[C@H](CO)[C@@H](O)[C@H]4O)c3nc2n1 (stereo partly specified) | > 200 µg/mL
* Cc1cn2c(O)c3ncn(COCCO)c3nc2n1 | > 400 µg/mL

Notebook: CCOC(Cn1c(N)nc2c(ncn2COC(CO)CO)c1=O)OCC , MIC read as > 400 µg/mL

----------
// values below are reported EC50
System: HEL
experiment.description: Concentration required to inhibit CMV (AD-169) induced cytopathogenicity in HEL cells by 50%
Assay type: functional
study.conditions: Homo sapiens; read-out: MIC

Solved entries:
* OCCOCn1cnc2c(O)n3ccnc3nc21 | > 400 µg/mL
* Cc1cn2c(O)c3ncn(C4O[C@H](CO)[C@@H](O)[C@H]4O)c3nc2n1 (stereo not given in full) | > 200 µg/mL
* CCOC(Cn1c(N)nc2c(ncn2C2O[C@H](CO)[C@@H](O)[C@H]2O)c1=O)OCC (stereo not given in full) | > 400 µg/mL
* CCOC(Cn1c(N)nc2c(ncn2COC(CO)CO)c1=O)OCC | > 400 µg/mL

// below: EC50 requested for another molecule
Notebook: CCOC(Cn1c(N)nc2c(ncn2COCCO)c1=O)OCC , EC50 read as > 400 µg/mL
